# TARGET DESC: DLL3 endogenously expressed on NCI-H82 cells (UniProt Q9NYJ7)
# Sequence (Q9NYJ7 27-618): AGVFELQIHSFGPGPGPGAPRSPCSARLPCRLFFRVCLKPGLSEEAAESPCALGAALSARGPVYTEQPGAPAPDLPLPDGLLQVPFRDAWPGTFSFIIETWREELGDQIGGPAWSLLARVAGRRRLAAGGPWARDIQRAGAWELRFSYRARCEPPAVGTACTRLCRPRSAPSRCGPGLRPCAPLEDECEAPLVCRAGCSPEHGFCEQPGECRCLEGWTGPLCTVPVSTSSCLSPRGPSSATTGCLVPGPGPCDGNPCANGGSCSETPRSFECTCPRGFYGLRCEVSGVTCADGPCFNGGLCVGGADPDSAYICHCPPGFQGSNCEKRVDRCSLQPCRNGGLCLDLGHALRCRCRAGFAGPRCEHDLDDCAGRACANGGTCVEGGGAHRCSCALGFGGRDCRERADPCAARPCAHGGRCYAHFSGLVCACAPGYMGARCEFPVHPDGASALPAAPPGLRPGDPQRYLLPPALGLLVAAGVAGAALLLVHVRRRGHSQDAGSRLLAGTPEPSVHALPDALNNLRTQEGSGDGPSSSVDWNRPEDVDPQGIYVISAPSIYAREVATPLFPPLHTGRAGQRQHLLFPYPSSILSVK
# ASSAY SUMMARY: FACS on NCI-H82 cells; antibody 4 nM
PROPERTY NAME: MFI

* mab015 scFv-hFc (Fc fusion, part only; not given: linker and human IgG1 Fc, not shown: a dimerising Fc or GST) chain, part: NIVMTQSPKSMSMSVGERVTLSCKASENVGTYVSWFQQKPEQSPKLLIYGASNRYTGVPDRFTGSGSATDFTLTISSVQAEDLADYHCGQFYSFPCTFGGGTKLEIKEVKLEESGGGLVQPGGSMKLSCVASGITFSNFWMNWVRQSPEKGLEWVAQIRLKSDDYATHYAESVKGRFTISRDDSKGSVYLQMNNLRTEDTGIHYCTTGYYFDYWGQGTTLTVSS | 1190
* Hab009VL2aVH1-hFc (Fc fusion, part only; not given: Linker and human IgG1 Fc, not shown: a dimerising Fc or GST) chain, part: DIVMTQSPLSLPVTPGEPASISCRASQTISDYLHWYLQKPGQSPRLLIKYASQSISGVPDRFSGSGSGTDFTLKISRVEAEDVGVYYCQQGHSFPLTFGQGTKLEIKEVQLVQSGAEVKKPGASVKVSCKASGYTFTSYWMHWVRQAPGQRLEWMGTIYPGNSDTRYNQKFKDRVTITADTSASTAYMELSSLRSEDTAVYYCTRSYDYGDLDYWGQGTTVTVSS | 747
* Hab015VL5VH6a-hFc (scFv, part only; not given: scFv linker and human IgG1 Fc, V domains shown, not shown: another chain or arm of the molecule; a dimerising Fc or GST; small tags and cut ends) VL: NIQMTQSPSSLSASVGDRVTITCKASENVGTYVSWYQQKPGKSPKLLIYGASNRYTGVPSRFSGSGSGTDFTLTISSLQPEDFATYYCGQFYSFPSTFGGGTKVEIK VH: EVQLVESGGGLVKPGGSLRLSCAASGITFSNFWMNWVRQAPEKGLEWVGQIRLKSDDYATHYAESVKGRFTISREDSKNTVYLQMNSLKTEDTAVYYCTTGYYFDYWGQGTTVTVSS | 827
* Hab014VL1VH2-hFc (scFv, part only; not given: VL-VH linker and human IgG1 Fc, V domains shown, not shown: another chain or arm of the molecule; a dimerising Fc or GST; small tags and cut ends) VL: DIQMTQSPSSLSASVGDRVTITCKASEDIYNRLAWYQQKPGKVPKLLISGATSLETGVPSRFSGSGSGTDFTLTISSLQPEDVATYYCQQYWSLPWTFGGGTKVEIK VH: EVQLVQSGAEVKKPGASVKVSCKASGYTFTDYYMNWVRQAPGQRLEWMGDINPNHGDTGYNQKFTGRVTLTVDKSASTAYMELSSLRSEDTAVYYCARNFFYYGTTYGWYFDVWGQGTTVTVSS | 625
